Target desc: T1, recombinant chicken leptin binding domain (chLBD) (chicken)
T1 construct: The 1:1 complex with leptin has a predicted mass of 40.5 kDa, so chLBD is about 24.5 kDa
Method summary: SPR (Biacore 3000), leptin mutant amine-coupled to CM5 chip, soluble chLBD as analyte, 25 C, 1:1 Langmuir fit, mean of 2 experiments
Each entry below carries its reported koff.
Assay readout: koff (s⁻¹)

# Binder, Unit abbrev, Observed measurement
records = [
    ("ovine leptin L39A/D40A/F41A mutant (ligand, also called L39A/D40A/F41A (ovine)) VSIRKVQDDTKTLIKTIVTRINDISHTQSVSSKQRVTGAAAIPGLHPLLSLSKMDQTLAIYQQILASLPSRNVIQISNDLENLRDLLHLLAASKSCPLPQVRALESLESLGVVLEASLYSTEVVALSRLQGSLQDMLRQLDLSPGC", "s⁻¹", 0.0025),
    ("human leptin L39A/D40A/F41A/I42A mutant (ligand, Expressed with an extra Met-Ala at the N-terminus, Met removed; also called L39A/D40A/F41A/I42A (human)) VPIQKVQDDTKTLIKTIVTRINDISHTQSVSSKQKVTGAAAAPGLHPILTLSKMDQTLAVYQQILTSMPSRNVIRISNDLENLRDLLHVLAFSKSCHLPWASGLETLDSLGGVLEASGYSTEVVALSRLQGSLQDMLWQLDLSPGC", "s⁻¹", 0.0068),
    ("human leptin L39A/D40A/F41A mutant (ligand, Expressed with an extra Met-Ala at the N-terminus, Met removed; also called L39A/D40A/F41A (human)) VPIQKVQDDTKTLIKTIVTRINDISHTQSVSSKQKVTGAAAIPGLHPILTLSKMDQTLAVYQQILTSMPSRNVIRISNDLENLRDLLHVLAFSKSCHLPWASGLETLDSLGGVLEASGYSTEVVALSRLQGSLQDMLWQLDLSPGC", "s⁻¹", 0.0102),
    ("ovine leptin F41A/I42A mutant (ligand, also called F41A/I42A (ovine)) VSIRKVQDDTKTLIKTIVTRINDISHTQSVSSKQRVTGLDAAPGLHPLLSLSKMDQTLAIYQQILASLPSRNVIQISNDLENLRDLLHLLAASKSCPLPQVRALESLESLGVVLEASLYSTEVVALSRLQGSLQDMLRQLDLSPGC", "s⁻¹", 0.0032),
    ("ovine leptin L39A/D40A/F41A/I42A mutant (ligand, also called L39A/D40A/F41A/I42A (ovine)) VSIRKVQDDTKTLIKTIVTRINDISHTQSVSSKQRVTGAAAAPGLHPLLSLSKMDQTLAIYQQILASLPSRNVIQISNDLENLRDLLHLLAASKSCPLPQVRALESLESLGVVLEASLYSTEVVALSRLQGSLQDMLRQLDLSPGC", "s⁻¹", 0.0032),
    ("human leptin F41A/I42A mutant (ligand, Expressed with an extra Met-Ala at the N-terminus, Met removed; also called F41A/I42A (human)) VPIQKVQDDTKTLIKTIVTRINDISHTQSVSSKQKVTGLDAAPGLHPILTLSKMDQTLAVYQQILTSMPSRNVIRISNDLENLRDLLHVLAFSKSCHLPWASGLETLDSLGGVLEASGYSTEVVALSRLQGSLQDMLWQLDLSPGC", "s⁻¹", 0.0115),
    ("human leptin L39A/D40A mutant (ligand, also called L39A/D40A (human)) VPIQKVQDDTKTLIKTIVTRINDISHTQSVSSKQKVTGAAFIPGLHPILTLSKMDQTLAVYQQILTSMPSRNVIRISNDLENLRDLLHVLAFSKSCHLPWASGLETLDSLGGVLEASGYSTEVVALSRLQGSLQDMLWQLDLSPGC", "s⁻¹", 0.0125),
    ("ovine leptin L39A/D40A mutant (ligand, also called L39A/D40A (ovine)) VSIRKVQDDTKTLIKTIVTRINDISHTQSVSSKQRVTGAAFIPGLHPLLSLSKMDQTLAIYQQILASLPSRNVIQISNDLENLRDLLHLLAASKSCPLPQVRALESLESLGVVLEASLYSTEVVALSRLQGSLQDMLRQLDLSPGC", "s⁻¹", 0.0057),
]
